These data points were gathered from PubChem BioAssay (NCI).

system: A549 NSCLC; assay: NCI tumour cell line growth inhibition, 384-well format; in the data active means GI50 below about 0.43 µM; inactive means the rest
Where a SMILES comes first, the peptide text is derived from it. [ ]: non-standard residue; d: D form. The star is where a group is joined. Dolaproine = CO[C@@H]([C@@H]1CCCN1)[C@@H](C)C(=O)O; Dil = CC[C@H](C)[C@H](NC)[C@@H](CC(=O)O)OC; X2 = C[C@@H](N*)[C@@H](O)c1ccccc1; NMeV = CN[C@H](C(=O)O)C(C)C
Possible outcomes: active, inactive

[[record]]
molecule = "CC[C@H](C)[C@@H]([C@@H](CC(=O)N1CCC[C@H]1[C@H](OC)[C@@H](C)C(=O)N[C@H](C)[C@@H](O)c1ccccc1)OC)N(C)C(=O)[C@@H](NC(=O)[C@@H](NC)C(C)C)C(C)C (H-[NMeV]V[Dil][Dolaproine]-X2)"
assigned_category = "active"

[[record]]
molecule = "CNC(=O)c1ccccc1Nc1cc(Nc2ccc(N3CCOCC3)cc2OC)ncc1C(F)(F)F"
assigned_category = "active"

[[record]]
molecule = "C=CC(=O)N1CCN(CCCn2c(=O)c(-c3c(Cl)c(OC)cc(OC)c3Cl)cc3cnc(NC)nc32)CC1"
assigned_category = "inactive"

[[record]]
molecule = "COc1cccc2[nH]c3c4c(c5c(c3c12)C(=O)N(CN1CCN(C)CC1)C5=O)CCC4"
assigned_category = "inactive"

